- Tested on: SNB-75 CNS
- Measurement description: NCI-60 one-dose screen, 48 h
- Experimental conditions: 10 µM unless noted
The panel holds about 83,000 compounds, 20% with a hit somewhere; the sample as a whole holds those more often. Active and inactive are the calls of the source. The calls were made as follows: active = growth percent below 10; inactive = the rest.
Labels: active, inactive

[
  {
    "Compound": "O=C(/C=C/c1ccc(F)cc1)Nc1cccc2cccnc12",
    "Category": "inactive"
  },
  {
    "Compound": "Cc1[nH]c(C(=O)Nc2ccc(C(N)=O)cc2N2CCOC(C)C2)c(Cl)c1Cl (stereo not given)",
    "Category": "inactive"
  },
  {
    "Compound": "Fc1ccc(-c2cn3c(-c4c[nH]c5ccc(Br)cc45)csc3n2)cc1",
    "Category": "active"
  },
  {
    "Compound": "CC(=O)Nc1ccccc1-c1nc2ccccc2s1",
    "Category": "inactive"
  },
  {
    "Compound": "O=C(Nc1cc(C(F)(F)F)cc(C(F)(F)F)c1)Nc1ccc2oc(=O)ccc2c1",
    "Category": "inactive"
  },
  {
    "Compound": "Cc1ccc([C@H]2c3[nH]c4ccccc4c3C[C@H]3C(=O)N(CCCCCCC(=O)NO)CC(=O)N23)s1",
    "Category": "inactive"
  },
  {
    "Compound": "CCNCCOc1ccc(/C(=C(/CC)c2ccc(Cl)cc2)c2ccc(OCCCN(C)C)cc2)cc1",
    "Category": "active"
  },
  {
    "Compound": "FC(F)(F)c1cc(Br)cc(-c2cc(-c3ccc4c(c3)OCCO4)[nH]n2)c1",
    "Category": "active"
  },
  {
    "Compound": "Cc1ccc(C)c(NC2=C(Cl)C(=O)c3nc(C)ccc3C2=O)c1",
    "Category": "inactive"
  },
  {
    "Compound": "CNC(=O)c1cc(Oc2ccc3c(c2)sc2nc(-c4ccc(N(C)C)cc4)cn23)ccn1",
    "Category": "inactive"
  }
]
